system: SN12C renal; assay: NCI-60 one-dose screen, 48 h (100 = growth as untreated, 0 = no growth, -100 = all killed); settings: 10 µM unless noted
The panel holds about 83,000 compounds, 20% with a hit somewhere; the sample as a whole holds those more often.
result_type: growth (%)

molecule=CCCCOCCOP(=O)(OCCOCCCC)OCCOCCCC result_type=growth readout_value=98
molecule="C[C@]12CCC3[C@@H](C[C@@H]4SC(Nc5ccccc5)=N[C@@]45CC(=O)CC[C@]35C)[C@@H]1CCC2=O (some centres undefined)" result_type=growth readout_value=-8.78
molecule=Cn1cc(-c2csc(-c3cn(CCCCN4CCOCC4)c4ccc(F)cc34)n2)c2cccnc21 result_type=growth readout_value=72.2
molecule=COc1cc2c(cc1OC)[C@@H]1C(=O)c3ccc4c(c3O[C@@H]1CO2)C[C@H](C(C)C)O4 result_type=growth readout_value=86.9
molecule="COc1c(O)cc2c(c1OC)-c1ccc(SC)c(=O)cc1C(NC(C)=O)CC2 (centres undefined)" result_type=growth readout_value=48.7
molecule=CN(C)c1ccc(C=C2C(=O)NC(=O)NC2=O)cc1 result_type=growth readout_value=77.5
molecule=CC[C@H](C)[C@H](NC(=O)c1ncccn1)C(=O)N(C)[C@H](C[C@@H](OC(C)=O)c1nc(C(=O)N[C@@H](Cc2ccccc2)C[C@H](C)C(=O)OC)cs1)C(C)C result_type=growth readout_value=45.7
molecule="C[N+]1(C)CCCC1c1cccnc1 (centres undefined)" result_type=growth readout_value=99.8
molecule="C=CC1CN2CCC1CC2C(O)c1ccnc2ccccc12 (centres undefined)" result_type=growth readout_value=109
molecule=C/C=C(/C)C(=O)O[C@H]1CC[C@@]2(C)[C@@H]3CC[C@H]4[C@]5(O)C[C@H](O)[C@@]6(O)[C@@H](CN7C[C@@H](C)CC[C@H]7[C@@]6(C)O)[C@]5(O)C[C@@]42O[C@@]13O result_type=growth readout_value=115
molecule=C[C@]12CCc3sc(Nc4ccc(O)cc4)nc3C1=CC[C@@H]1[C@@H]2CC[C@]2(C)C(=O)CC[C@@H]12 result_type=growth readout_value=30.4
molecule=CCCCOC(N)=O result_type=growth readout_value=103
molecule=CC(C)CCC1C(=O)NC(=O)NC1=O result_type=growth readout_value=96.3
molecule="COC12CC3C4=CCOC5CC(=O)N6c7ccccc7C1(CCN2C4)C6C53 (centres undefined)" result_type=growth readout_value=119

###

system: SNB-75 CNS; assay: NCI-60 one-dose screen, 48 h; conditions: 10 µM unless noted
The panel holds about 83,000 compounds, 20% with a hit somewhere; the sample as a whole holds those more often. The source made the active and inactive calls. How the source made its calls: active means growth percent below 10; inactive means the rest.
Classes used: active, inactive

chemical_smiles=O=NN(c1ccccc1)c1ccccc1 class_assignment=inactive
chemical_smiles=CC/C(Cc1ccccc1)=C(\c1ccc(OCCN2CCCC2)cc1)c1ccc(OC(=O)NCc2ccccc2)cc1 class_assignment=inactive
chemical_smiles=CCN1C(=O)CC(=O)N(CC)C1=S class_assignment=inactive
chemical_smiles=O=C1C=C(N2CC2)c2ccccc2C1=O class_assignment=inactive
chemical_smiles=O=c1c2ccccc2nc(-c2ccccc2Cl)n1-c1nnc(C(F)(F)F)s1 class_assignment=inactive
chemical_smiles=O=C1CN2CCC1CC2 class_assignment=inactive
chemical_smiles=Cc1ccc(P(=O)(O)O)cc1 class_assignment=inactive
chemical_smiles=C#Cc1cccc(Nc2nc(Cl)nc3cc(NC(=O)CF)ccc23)c1 class_assignment=inactive
chemical_smiles=Oc1ccccc1C=NCCN=Cc1ccccc1O class_assignment=inactive
chemical_smiles=OCCNC1CCCCC1 class_assignment=inactive
chemical_smiles=O=C/C=C/c1ccco1 class_assignment=inactive
chemical_smiles=CC1=C([Te]c2ccccc2)C(=O)c2ccccc2C1=O class_assignment=active

###

Tested on: U251 CNS
Assay: NCI-60 one-dose screen, 48 h (100 = growth as untreated, 0 = no growth, -100 = all killed)
Conditions: 10 µM unless noted
Protocol: Growth inhibition of the U251 human tumor cell line is measured as a screen for anti-cancer activity. Cells are grown in 96 well plates and exposed to the test compound for 48 hours. Compounds are tested at a single concentration, which is 10^-5 M for most compounds. The reported endpoint is percent growth (GI% or GIPRCNT), where numbers from 0 - 100% represent growth inhibition, and numbers from -100% - 0 represent cell death. For example, a value of 40 represents 60% growth inhibition. […]
Compounds without any hit were thinned out: in the full panel of roughly 83,000, 20% have a hit.
result_type: growth (%)

compound=COc1ccc2c(c1)c(-c1nc(-c3c[nH]c4ncccc34)cs1)cn2CCCCN1CCOCC1 system_tested="U251 CNS" unit_spec=% readout_value=4.84
compound=CCOC(=O)P(=O)(OCC)OCC system_tested="U251 CNS" unit_spec=% readout_value=109
compound=C[C@]12CCc3nc(-c4ccc(O)c(O)c4)sc3C1=CC[C@@H]1[C@@H]2CC[C@]2(C)C(=O)CC[C@@H]12 system_tested="U251 CNS" unit_spec=% readout_value=40.5
compound=Cn1cc(C(=O)C[n+]2ccccc2)c2ccccc21 system_tested="U251 CNS" unit_spec=% readout_value=97
compound="CC1(C)N(Nc2ccccc2)C(=O)C2CCCN21 (stereo unspecified)" system_tested="U251 CNS" unit_spec=% readout_value=85.2
compound=CO/N=C1\CC[C@]2(C)[C@H]3CC[C@]4(C)C(=O)CC[C@H]4[C@@H]3C[C@@H]3SC(N)=N[C@@]32C1 system_tested="U251 CNS" unit_spec=% readout_value=105
compound=COc1cc(/C=C\[N+](=O)[O-])ccc1OCc1ccccc1 system_tested="U251 CNS" unit_spec=% readout_value=5.01
compound=CC/C(Cc1ccccc1)=C(\c1ccc(OCCN2CCCC2)cc1)c1ccc(OC(=O)NCc2ccccc2)cc1 system_tested="U251 CNS" unit_spec=% readout_value=12.5
compound=COC(=O)CCP(CCC(=O)OC)c1ccccc1 system_tested="U251 CNS" unit_spec=% readout_value=99.3
compound=CC[C@H](C)[C@H](NC(=O)[C@H]1CCCCN1C)C(=O)N(C)[C@H](C[C@@H](OC(C)=O)c1nc(C(=O)N[C@@H](Cc2ccccc2)C[C@H](C)C(=O)O)cs1)C(C)C system_tested="U251 CNS" unit_spec=% readout_value=15
compound=CC[C@H](C)[C@H](NC(=O)c1ncccn1)C(=O)N(C)[C@H](C[C@@H](OC(C)=O)c1nc(C(=O)N[C@@H](Cc2ccccc2)C[C@H](C)C(=O)OC)cs1)C(C)C system_tested="U251 CNS" unit_spec=% readout_value=16.7

###

system: COLO 205 colon; assay: NCI-60 one-dose screen, 48 h (100 = growth as untreated, 0 = no growth, -100 = all killed); conditions: 10 µM unless noted
About 83,000 compounds went through this panel and 20% of them were active in at least one assay; those are over-represented in the sample as a whole. Activity calls are given as the source filed them. Rule for the calls: active = growth percent below 10; inactive = the rest.
result_type: growth

compound="O=P1(N(CCCl)CCCl)NCCCO1 (centres undefined)" system_tested="COLO 205 colon" readout_value="116% (inactive)"
compound=C/C(=C(\c1ccc(OCCN2CCOCC2)cc1)c1ccc(OC(=O)Cc2ccccc2)cc1)c1ccc(Cl)cc1 system_tested="COLO 205 colon" readout_value="106% (inactive)"
compound=CCCCn1c(=O)c(C(=O)NCc2ccccc2Cl)c(O)c2ccccc21 system_tested="COLO 205 colon" readout_value="92.8% (inactive)"
compound=c1ccc2c(c1)O[As](O[As]1Oc3ccccc3O1)O2 system_tested="COLO 205 colon" readout_value="50.3% (inactive)"

###

tested on: SW-620 colon; assay: NCI-60 one-dose screen, 48 h; conditions: 10 µM unless noted
The panel holds about 83,000 compounds, 20% with a hit somewhere; the sample as a whole holds those more often. The source made the active and inactive calls. How the source made its calls: active means growth percent below 10; inactive means the rest.
Classes used: True (active), False (inactive)

compound=CC[C@H](C)[C@H](NC(=O)CN(C)C)C(=O)N(C)[C@H](C[C@@H](OC(C)=O)c1nc(C(=O)NC23CC(C(=O)OC)(C2)C3)cs1)C(C)C class_assignment=False
compound="CCCCCCCCCCCCCCCCCC1OCC(COC(=O)O[C@@H](C(=O)O[C@H]2C[C@@]3(O)[C@@H](OC(=O)c4ccccc4)[C@@H]4[C@]5(OC(C)=O)CO[C@@H]5C[C@H](O)[C@@]4(C)C(=O)[C@H](OC(C)=O)C(=C2C)C3(C)C)[C@@H](NC(=O)c2ccccc2)c2ccccc2)O1 (stereo not given in full)" class_assignment=False
compound=Cc1cc(N(CCCl)CCCl)ccc1C=Nc1ccc(-c2csc(-c3ccccc3)n2)cc1 class_assignment=False
compound=C[C@]12CCc3sc(Nc4ccc(F)cc4F)nc3C1=CC[C@@H]1[C@@H]2CC[C@]2(C)C(=O)CC[C@@H]12 class_assignment=True
compound="CC(=O)OC1CC2(O)C(CCC3(C)C(c4ccc(=O)oc4)CCC32O)C2(C)CCC(OC3OC(CO)C(O)C(O)C3O)C=C12 (stereo not given)" class_assignment=True
compound="CC12CCC3C(CCC4CC(O)CCC43C)C1CCC2=O (stereo not given)" class_assignment=False
compound=O=[N+]([O-])c1c(Cl)cc(Cl)c([N+](=O)[O-])c1Cl class_assignment=False
compound=CC[C@H](C)[C@H](NC(=O)[C@H]1CCCCN1C)C(=O)N(C)[C@H](C(=O)NC12CC(C(=O)N[C@@H](Cc3ccccc3)C[C@H](C)C(=O)OC)(C1)C2)C(C)C class_assignment=False
compound=COc1cc2c(cc1OC)[C@@H]1C(=O)c3ccc4c(c3O[C@@H]1CO2)C[C@H](C(C)C)O4 class_assignment=False
compound=Cc1ccc(S(=O)(=O)n2cc([C@@]3(O)C[C@H](CSC#N)OC3=O)c3ccccc32)cc1 class_assignment=False
compound=O=C(Cc1ccccc1)c1ccccc1 class_assignment=False
compound=CCN(CC)CCn1c(=O)n(C)c2ccccc21 class_assignment=False
compound="C=CC1CN2CCC1CC2C(O)c1ccnc2ccccc12 (stereo not given)" class_assignment=False
compound=C/C(=C\c1ccn(-c2ccc(N)c(C(F)(F)F)c2)n1)[C@@H]1C[C@@H]2O[C@]2(C)CCC[C@H](C)[C@H](O)[C@@H](C)C(=O)C(C)(C)[C@@H](O)CC(=O)O1 class_assignment=False
compound=C[C@]12CC[C@H]3[C@@H](C[C@@H]4SC(Nc5ccccc5)=N[C@@]45C/C(=N/O)CC[C@]35C)[C@@H]1CCC2=O class_assignment=False
compound="NC1CN2CCC1CC2 (stereo not given)" class_assignment=False
compound=C[C@]12CCc3nc(-c4ccc(O)c(O)c4)sc3C1=CC[C@@H]1[C@@H]2CC[C@]2(C)C(=O)CC[C@@H]12 class_assignment=False
compound="COC(=O)C12C3C4C1C1C2C3C41NC(=O)c1csc([C@@H](C[C@H](C(C)C)N(C)C(=O)[C@@H](NC(=O)[C@H]2CCCCN2C)C2CC2)OC(C)=O)n1 (stereo not given in full)" class_assignment=False
compound=COC[C@H]1OC(=O)c2coc3c2[C@@]1(C)C1=C(C3=O)[C@@H]2CCC(=O)[C@@]2(C)C[C@H]1OC(C)=O class_assignment=False
compound=Nc1nc(=S)nc(N)[nH]1 class_assignment=False

All values here come from PubChem BioAssay (NCI).
